measurementTarget: Hypoxia-inducible factor 1-alpha (Homo sapiens)
runDescription: activators of HIF1alpha nuclear accumulation, confirmation, imaging, fluorescence, U2OS GFP-HIF1alpha (AID 434951)
recordedConditions: U2OS GFP-HIF1alpha nuclear intensity, high-content imaging
Activity calls are given as the source filed them.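 The calls were made as follows: active = a fitted half-maximal concentration EC50 for the rise in nuclear signal no higher than ten times the top dose tested; inconclusive = flat fit with activity between 30% and 70%, or unusable fit; inactive = EC50 beyond ten times the top dose.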
Outcomes: active, inactive

>  <compound>
Cn1cc(CN2CCC(C(=O)Nc3cccc(-c4cscn4)c3)CC2)cn1

>  <className>
inactive

$$$$
>  <compound>
Cc1c(Cl)cccc1NC(=S)N/N=C/c1ccccc1Cl

>  <className>
active

$$$$
>  <compound>
Cc1noc(C)c1COC(=O)C1CC(O)CN1S(=O)(=O)c1ccc(Cl)cc1 (centres undefined)

>  <className>
inactive

$$$$
>  <compound>
COc1ccc2[nH]c(C(=O)N/N=C/c3ccc(O)cc3O)cc2c1

>  <className>
active

$$$$
>  <compound>
Oc1ccc(/C=N/Nc2ccc(C(F)(F)F)cn2)c(O)c1

>  <className>
active

$$$$
>  <compound>
CC(C(=O)Nc1ccccc1-c1ccccc1)N1CCN(C(=O)c2ccccc2)CC1 (centres undefined)

>  <className>
inactive

$$$$
>  <compound>
Nc1ccc(C(=O)N/N=C\c2cc(N=Nc3cccc4ccccc34)ccc2O)cc1

>  <className>
active

$$$$
>  <compound>
c1ccc(N=Nc2ccc3cccccc2-3)cc1

>  <className>
active

$$$$
>  <compound>
O=C(CCCCCN1C(=O)c2ccccc2C1=O)Nc1ccc2c(c1)OCCO2

>  <className>
inactive

$$$$
>  <compound>
c1ccc(-c2nnc(-c3ccccn3)nc2NC2CCCCC2)cc1

>  <className>
active

$$$$
>  <compound>
Oc1c(CN2CCCCC2)cc(COCc2ccccc2)c2cccnc12

>  <className>
active

$$$$
>  <compound>
CC(C)N(c1ccccc1)c1ncnc(NCCC(=O)O)c1[N+](=O)[O-]

>  <className>
inactive

$$$$
>  <compound>
O=C(O)c1cccc(N2CCCC2=O)c1

>  <className>
inactive

$$$$
>  <compound>
Cc1ccc(-c2nc3ccccc3nc2NN)cc1

>  <className>
inactive

$$$$
>  <compound>
COCCNC(=O)c1sc2nc(-c3ccccc3)cn2c1C

>  <className>
inactive

$$$$
>  <compound>
O=C(N/N=C/c1ccccn1)c1ccc(Cl)cc1

>  <className>
active

$$$$
>  <compound>
Cc1cc(C)n(-c2nc3ccccc3c(=O)n2OCC#N)n1

>  <className>
active

$$$$
>  <compound>
COC(=O)CNC(=O)CSc1nnc2cc(C)c3ccccc3n12

>  <className>
inactive

$$$$
>  <compound>
O=C(CCc1nnc(-c2ccccc2)o1)c1ccc(Cl)cc1

>  <className>
inactive

$$$$
>  <compound>
CCC/C(O)=C1\C(=O)CC(C)(C)CC1=NCc1ccccc1

>  <className>
inactive

$$$$
>  <compound>
O=C(Nc1nc(NC(=O)c2ccco2)n(-c2ccccc2)n1)c1ccccc1

>  <className>
active

$$$$
>  <compound>
CC(=O)N1CCC(=NNc2nc3ccccc3[nH]2)CC1

>  <className>
inactive

$$$$
>  <compound>
COc1ccc(OC)c(NC2=NCCCS2)c1

>  <className>
inactive

$$$$
>  <compound>
O=C(Nc1ccccc1O)c1ccc(NC(=O)C2CC2)cc1

>  <className>
active

$$$$

###

measurementTarget: Hypoxia-inducible factor 1-alpha (Homo sapiens) (UniProt Q16665)
Sequence (Q16665 whole entry, looked up): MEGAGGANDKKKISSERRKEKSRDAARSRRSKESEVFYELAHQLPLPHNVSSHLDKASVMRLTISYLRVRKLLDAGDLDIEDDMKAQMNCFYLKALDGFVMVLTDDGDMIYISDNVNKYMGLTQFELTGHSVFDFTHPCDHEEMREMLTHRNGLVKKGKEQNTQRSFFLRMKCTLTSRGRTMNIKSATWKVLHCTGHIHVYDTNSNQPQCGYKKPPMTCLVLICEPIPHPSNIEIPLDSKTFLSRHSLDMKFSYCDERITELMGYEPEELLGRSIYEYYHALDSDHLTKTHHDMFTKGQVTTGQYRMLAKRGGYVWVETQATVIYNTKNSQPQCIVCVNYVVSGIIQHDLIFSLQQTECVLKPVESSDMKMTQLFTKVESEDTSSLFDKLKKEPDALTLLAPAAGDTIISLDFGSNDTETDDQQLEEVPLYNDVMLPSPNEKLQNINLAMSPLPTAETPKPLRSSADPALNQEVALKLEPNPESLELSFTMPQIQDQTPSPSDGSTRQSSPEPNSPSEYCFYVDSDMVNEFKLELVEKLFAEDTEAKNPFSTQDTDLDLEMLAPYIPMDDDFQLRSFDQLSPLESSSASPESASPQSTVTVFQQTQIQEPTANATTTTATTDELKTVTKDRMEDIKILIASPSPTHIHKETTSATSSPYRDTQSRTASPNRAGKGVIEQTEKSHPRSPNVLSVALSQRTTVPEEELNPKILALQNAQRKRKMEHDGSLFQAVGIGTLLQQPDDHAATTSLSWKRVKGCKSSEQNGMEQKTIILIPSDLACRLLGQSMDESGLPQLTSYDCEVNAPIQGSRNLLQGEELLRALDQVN
runDescription: activators of HIF1alpha nuclear accumulation, confirmation, imaging, fluorescence, U2OS GFP-HIF1alpha (AID 434951)
recordedConditions: U2OS GFP-HIF1alpha nuclear intensity, high-content imaging
The source made the active and inactive calls.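 The calls were made as follows: active = a fitted half-maximal concentration EC50 for the rise in nuclear signal no higher than ten times the top dose tested; inconclusive = flat fit with activity between 30% and 70%, or unusable fit; inactive = EC50 beyond ten times the top dose.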
Outcomes: active, inactive

>  <compound>
COc1ccc(CC(=O)NNC(=S)NCC2CC2)cc1OC

>  <className>
inactive

$$$$
>  <compound>
O=C(Cn1ncc2c3ccccc3n(Cc3ccccc3F)c2c1=O)NCCN1CCOCC1

>  <className>
inactive

$$$$
>  <compound>
CCC(Sc1nc(C)cc(=O)[nH]1)C(=O)Nc1sc2c(c1C#N)CCCC2 (stereo not given)

>  <className>
inactive

$$$$
>  <compound>
Nc1nonc1-n1nnc(C(=O)N/N=C/c2cc(Br)ccc2O)c1CSC1=NCCS1

>  <className>
active

$$$$
>  <compound>
Cc1ccc(-n2nc3c(=O)n(CC(=O)NCc4ccccc4)nc(C)c3c2C)cc1

>  <className>
inactive

$$$$
>  <compound>
Cc1ccc(-c2csc3nc(SCC(=O)N(C)C)n(Cc4ccccc4)c(=O)c23)cc1

>  <className>
active

$$$$
>  <compound>
CCCn1c(SCC(=O)N2CCc3ccccc3C2)nc2c1c(=O)n(C)c(=O)n2C

>  <className>
inactive

$$$$
>  <compound>
O=C(CCSc1nc2ccccc2s1)N/N=C/c1c(O)ccc2ccccc12

>  <className>
active

$$$$
>  <compound>
COc1ccc(C(=O)NCCc2nc3cc([N+](=O)[O-])ccc3n2C)cc1

>  <className>
inactive

$$$$
>  <compound>
COc1cccc(NC(=S)N(CCCN2CCOCC2)Cc2cn(C)c3ccccc23)c1

>  <className>
inactive

$$$$

###

Below, each entry is listed with its recorded EC50.
measurementTarget: Hypoxia-inducible factor 1-alpha (Homo sapiens) (UniProt Q16665)
runDescription: activators of HIF1alpha nuclear accumulation, confirmation, imaging, fluorescence, U2OS GFP-HIF1alpha (AID 434951)
recordedConditions: U2OS GFP-HIF1alpha nuclear intensity, high-content imaging
Active and inactive are the calls of the source.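 Rule for the calls: active = a fitted half-maximal concentration EC50 for the rise in nuclear signal no higher than ten times the top dose tested; inconclusive = flat fit with activity between 30% and 70%, or unusable fit; inactive = EC50 beyond ten times the top dose.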
readout: EC50

>  <molecule>
C=CCNC(=O)/C(=C/c1cn(-c2ccccc2)nc1-c1cccc([N+](=O)[O-])c1)NC(=O)c1ccccc1

>  <readout>
EC50

>  <recordedMeasurement>
> 35 µM (inactive)

$$$$
>  <molecule>
O=C(N/N=C/c1cc(Br)ccc1O)C(c1ccncc1)N1CCOCC1 (stereo not given)

>  <readout>
EC50

>  <recordedMeasurement>
> 35 µM (inactive)

$$$$
>  <molecule>
O=C(N/N=C/c1ccc(O)cc1O)c1ccc(CN2C(=O)c3cccc4cccc2c34)cc1

>  <readout>
EC50

>  <recordedMeasurement>
19.6 µM

$$$$
>  <molecule>
CCN(Cc1ccccc1)C(=O)CCNS(=O)(=O)c1ccc2c(c1)CC(C)N2C(C)=O (stereo not given)

>  <readout>
EC50

>  <recordedMeasurement>
> 35 µM (inactive)

$$$$
>  <molecule>
CC(C)C(=O)NC(c1cccc([N+](=O)[O-])c1)c1ccc2cccnc2c1O (stereo not given)

>  <readout>
EC50

>  <recordedMeasurement>
2.3 µM

$$$$

###

measurementTarget: Hypoxia-inducible factor 1-alpha (Homo sapiens) (UniProt Q16665)
runDescription: activators of HIF1alpha nuclear accumulation, confirmation, imaging, fluorescence, U2OS GFP-HIF1alpha (AID 434951)
recordedConditions: U2OS GFP-HIF1alpha nuclear intensity, high-content imaging
The source made the active and inactive calls.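 The calls were made as follows: active = a fitted half-maximal concentration EC50 for the rise in nuclear signal no higher than ten times the top dose tested; inconclusive = flat fit with activity between 30% and 70%, or unusable fit; inactive = EC50 beyond ten times the top dose.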
readout: EC50

>  <compound>
COc1ccc(S(=O)(=O)N2CCOC2CNC(=O)C(=O)NCc2ccc3c(c2)OCO3)cc1OC (configuration not stated)

>  <recordedMeasurement>
> 35 µM (inactive)

$$$$
>  <compound>
Cc1ccc(/C=C(\C#N)c2nn(-c3ccccc3)c(N)c2C#N)cc1

>  <recordedMeasurement>
> 35 µM (inactive)

$$$$
>  <compound>
Cc1cc(SCC(=O)N/N=C/c2ccc(O)c(O)c2O)c(C)cc1Br

>  <recordedMeasurement>
> 35 µM (inactive)

$$$$
>  <compound>
COC(=O)C1=Nc2ccccc2/C1=C\c1c(O)n(-c2cc(OC)ccc2OC)c(=O)[nH]c1=O

>  <recordedMeasurement>
> 35 µM (inactive)

$$$$
>  <compound>
Cc1nc(C)c(C(=O)N/N=C/c2cc(Br)ccc2O)s1

>  <recordedMeasurement>
7.18 µM

$$$$
>  <compound>
COc1ccccc1NC(=O)C1CCN(C(=O)c2ccc(C(C)(C)C)cc2)CC1

>  <recordedMeasurement>
> 35 µM (inactive)

$$$$
>  <compound>
CCCCC(=O)NC(c1ccc(N(C)C)cc1)c1ccc2cccnc2c1O (configuration not stated)

>  <recordedMeasurement>
3.09 µM

$$$$
>  <compound>
COc1cccc(Nc2n[nH]c(=S)s2)c1

>  <recordedMeasurement>
> 35 µM (inactive)

$$$$
>  <compound>
COc1cccc(C2C3=C(N=c4s/c(=C\c5ccccc5O)c(=O)n42)c2ccccc2CC3)c1OC (configuration not stated)

>  <recordedMeasurement>
> 35 µM (inactive)

$$$$
>  <compound>
CCCC1CCC(=C(C#N)C(N)=O)CC1 (configuration not stated)

>  <recordedMeasurement>
> 35 µM (inactive)

$$$$
>  <compound>
COc1ccccc1N=Nc1ccc(O)c2ncccc12

>  <recordedMeasurement>
7.58 µM

$$$$
>  <compound>
CCN(CC)S(=O)(=O)c1ccc(N/N=C(\C)c2ccc(OC)cc2O)nc1

>  <recordedMeasurement>
7.86 µM

$$$$
>  <compound>
CCOC(=O)CN1C(=N)N(c2nc(NC(C)C)nc(NC(C)C)n2)CC1=O

>  <recordedMeasurement>
> 35 µM (inactive)

$$$$
>  <compound>
Oc1c(CN2CCN(c3ccc(F)cc3)CC2)cc(Cl)c2cccnc12

>  <recordedMeasurement>
6.07 µM

$$$$
>  <compound>
CCOc1cc(/C=N/NC(=O)c2c(-c3ccccc3)noc2C)ccc1O

>  <recordedMeasurement>
> 35 µM (inactive)

$$$$
>  <compound>
O=C(COC(=O)Cc1ccc(S(=O)(=O)N2CCCCC2)s1)Nc1ccc2c(c1)OCO2

>  <recordedMeasurement>
> 35 µM (inactive)

$$$$
>  <compound>
CCCCOC(=O)c1ccc(NC(=O)C(=O)NCc2cccnc2)cc1

>  <recordedMeasurement>
> 35 µM (inactive)

$$$$
>  <compound>
CCC(=O)N1CCc2cc(S(=O)(=O)NCCC(=O)N3CCN(c4cccc(OC)c4)CC3)ccc21

>  <recordedMeasurement>
> 35 µM (inactive)

$$$$
>  <compound>
CCCNC(=O)c1cc2nc(-c3ccccc3)cc(C(F)(F)F)n2n1

>  <recordedMeasurement>
> 35 µM (inactive)

$$$$
>  <compound>
CCOC(=O)N1CCN(c2ccc(Cl)c(Cl)c2)CC1

>  <recordedMeasurement>
> 35 µM (inactive)

$$$$
>  <compound>
Cc1ccc(/C(=N/Nc2ncnc3ccccc23)C(=O)O)cc1

>  <recordedMeasurement>
> 35 µM (inactive)

$$$$
>  <compound>
O=C(O)c1ccccc1OCCOc1ccccc1C(=O)O

>  <recordedMeasurement>
> 35 µM (inactive)

$$$$
